Experiment Summary: soluble on expression in E. coli; label from the status in PepcDB or PDB records
Readout Type: soluble on expression in E. coli

MEFTDIAMELSKKAWQASFHHPFILQLQEGNLEPAIFRYYLIQDAYYLKAFSEIYHLLADKTSNQEMKRLLKQNAQGLVEGELFIRQQFFKELEISDQEMEQHPIAPTCYHYISHIYRQFAEPNLAIAFASLLPCPWLYHDIGKSLNLKPSPNPLYQQWIETYITDELEQQIREEGALVNQLYRESDETDKQKMLDAFHISVHMEAKFWEMAYQHQTWKSDLQSLEKGEEMAGDPLEHHHHHH; soluble
MEDLKHSDALVREQATKKLWRIWFQQKGMYGLEKIDQSQKLLDAGEITEAEVMLTQLIQEQPDFAEAWNRRAFLYYSMGEYQKSLADCQMVIQINPVHFGALHGIGLCYAALGKYAKAIKAFKRALEIQPYSLVNQKLILECTFRLSLEHHHHHH; soluble

###

Experiment Summary: soluble on expression in E. coli; label from the status in PepcDB or PDB records
Readout Type: soluble on expression in E. coli

MEIEKENGSKRLAVLIDADNAQASVLGELLAEISKYGTLNIKRAYGDWTSSNLKSWKEHLHKYAIAPIQQFNYTSGKNATDSALIIDAMDLLHDAPLEGFCLVSSDSDFTRLATRIRESGLVVYGFGEKKTPEAFVAACDKFIYTEILRQEEQRRPESSWNDSWSKSESKALKSIIQPAIKATMKEDDWVPLASIGLYISKNHPAFDPRNYGYDKLGRLIETLDFVELKKIPFKDGSSNTHVMVRLRSLEHHHHHH; not soluble
KVTNRHFQDVPALEVVTTTHLDQPLPLVIFYHGWQSNKELVLTQARKLARKNLRVVLPDAMNHGERHQIVSQIPSFTFWNSIQGNLGEFELIVNYYRERKLILNEQIGVGGYSMGGMTTGALLTHHPEIKAATIIMGTPNLNAYAQLVRKHAQAHAYYIPSDLALLTSWLDHYDLNLQPETINHRPLLFWHGTEDERIPYSQSRNFFDRVHTAPYAEQVAFITGYQAKHLVKVPLMNKVANFFDYYLN; not soluble

###

Experiment Summary: soluble on expression in E. coli; label from the status in PepcDB or PDB records
Readout Type: soluble on expression in E. coli

GSAMASNAVLYKSNHNVVYSCKYHIVWCPKYRRKVLVGAVEMRLKEIIQEVAKELRVEIIEMQTDKDHIHILADIDPSFGVMKFIKTAKGRSSRILRQEFNHLKTKLPTLWTNSCFISTVGGAPLNVVKQYIENQQNSNRPKQKEKWKSYVDNLQTKAL; soluble
MKIMIIGATGMAGQALVTTALNRGHQVVAVARSAEKLATLPSNPNLTSIVRDAFNLTTTDLSAVDAVVDAFATAPDHAYLHVDLATHLISQLRETTTPRVAFILGAGSLTTGDDAHLFVHDLEQDPHAASFISVPQNQLKELTFLRDVDNVNWFGVSPAADFHPGEAQPALLGTDTLLFNDQQQSGTSAGTMAVAILDELENPKHHQTRFTVADKLEHHHHHH; soluble

###

Experiment Summary: soluble on expression in E. coli; label from the status in PepcDB or PDB records
Readout Type: soluble on expression in E. coli

MSLDAVRAVLIDIDGVLTVSWKPLPGAIEALHRIRDASLGVVLLTNTTSRTRASIAATLGASGFPVSAEDILTAPTATAAHLTDHCPGARCSLLNSGDIREDLVGVTLLDDTDTVPDVVIVGGAGPEFDYAALNRVFGHLQRGARLVAMHRNLYWRTDRGLDLDSGAFLLGLEHAAGTRAEITGKPAPAFFEAALTRLGAGPGQAVMVGDDIESDVLAAQRTGITGVLVKTGKYLPETHHAASARPDHVLDSVADLPALLDSVVREGHHHHHH; soluble
GPMRRERGRQGDSSSCERQVDRVNLKPCEQHIMQRIMGEQEQYDSYDIRSTRSSDQQQRCCDELNEMENTQGCMCEALQQIMENQCDRLQDRQMVQQFKRELMSLPQQCNFRAPQRCDLDVSGGRCS; soluble
